B1: Pituitary-specific positive transcription factor 1, residues 130 to 198; numbered along this chain, P28069 (parent)
chain: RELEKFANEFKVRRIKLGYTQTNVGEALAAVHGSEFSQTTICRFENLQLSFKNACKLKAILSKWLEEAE

# Variants of: B1
# Procedure text: abundance fitness (aPCA) (normalised: wild type 0, dead -1); higher = more abundant; growth selection in yeast, the domain comes from the species named
# Details: Homo sapiens
Readout label: abundance fitness
Please give only the number in your answer, with no unit.

What does the record list as abundance fitness for I15T ?
-0.13

What value of abundance fitness has been reported for the following variant? A7L
-0.975

For the variant A59L , what abundance fitness is on record?
-0.122

I am curious: what abundance fitness value has been reported for E2R ?
-0.624

Entry T39C has what abundance fitness?
-1.07

Name the recorded abundance fitness for A29V .
-0.87

Which abundance fitness value is on record for L49Q ?
-0.749

Recorded abundance fitness of A30Y , please.
-0.633

Item S50I has what recorded abundance fitness?
-0.378

Please report the recorded abundance fitness for L47F .
-0.562

Would you kindly share the measured abundance fitness for T22W ?
0.18

Fill in the blank: the reported abundance fitness of F10N is ____.
-0.59

If you can, please state the reported abundance fitness value of L17V .
-0.785
